- Experimental protocol: label from the status in PepcDB records
Observation type: protein production

{"Polymer sequence": "MVTDADYRELRGATETPREAVVVGLAGEVGLTSAEIPRVRPCDVAPHDHDGVTHYFLAVPGADGGSDRDAYLPPAVERDIRRRADAAGLADDDPLVDVSARRVQTLVNAVAGRTDTAGLDGVAAQDLRSFFARRLLTGAGVDPRVVAAVGGWSRLASLDQYAAVDALEHHHHHH", "Value observed": "failed"}
{"Polymer sequence": "MALLRRFIGQKVRTVIQVTGSEIGSVVGKSTDDLQIVVRGSSPPSPLTTYLEVIGIAESDNAIRAETWTNFGNTFDTQNYNELCKLAN", "Value observed": "failed"}
{"Polymer sequence": "MQNTIIQKAVNKDLNSILEITKDALNAMKTMNFHQWDENYPNEIVFQEDIQAQELYVFKENDEILGFICINEKFKPEFYKQVIFNKNYDDKAFYLHRLAVKQNAKGKGVAQKLLNFCENFALENHKASLRADTHSKNFPMNSLFKKLDFNFCGNFDIPNYQ", "Value observed": "failed"}

----------
- Experimental protocol: label from the status in PepcDB records

{"Polymer sequence": "METRAPFVIVGAFVLAAIFAVFGFVFWLHNTSGVGARTSYHVQFRDPVPGLLVGAAVLFNGIRVGEVTALALAPDDPRRVDATIAVAPSTPVRPDTKVGLDFQGLTGVPVVALEGGKQLSGSAIATTLVAEPGAGMSMTQAAREALRKVDSVLGENSGPLKDTIANFKTFSEWLAGKTEKLDGILGGVERMTGANEPVVKKVVYDLSAATGFPPPSPPLKGQLTIPESNTVVLFDSQKMLLAPGLEVPAFAGAQWSDSLPKMLQEKLIQSFENYDIAHAPMRPNDAVQPDYQLLTDIRSFQVIGEGDALRAEIAFSAKIIDKDGKLVAARLFQQASPLDKPEPAAAVSAFDKSFDTIAKELVPWAAQALASGRAEVEPAATTSRPITAPRSSGTTKGR", "protein production": "failed"}
{"Polymer sequence": "MTTGDGRSRLLAAATRLIRTQGFAATSVEAICREAGVTKGAFFHHFPSKEALGVAAAEAWSDVTGRLFAEAPYHRPADPLDRVLAYIDFRRALVAGEIADYTCLVGTLVQEAYGSDPIRAACGASILGHAGTLEADMAAAAEARGVADVDPASLARHTQAVLQGAFILAKAGGGAAAVEEALDHLKRYLRLLFANPGASGA", "protein production": "failed"}
{"Polymer sequence": "MKRVALIHGWGGSFAATWEADGWSDALRAAGFDPVGVTIAGHGPEGGSHDPADYADLAGDLAAKLPAGLHGAIGFSLGTKLLLELEARSPGRNGRLVLGGIGDNLFAPEAAGPALVAALRGEATTPPPQVAALLAYAEKSASDPACLAAILERPANPVLTEDRLATAQAPILIFNSRDDAVAQPDTRLCRAMPHASHRLIEGPGHVALTSDARFREAAVEFLSK", "protein production": "failed"}

----------
- Experimental protocol: label from the status in PepcDB records
Observation type: protein production

{"Polymer sequence": "MPYFLIHNKNDNVGVAIADIKTGQEVEGIYIEDMTQGPKIKAISDIPLGHKIALKDIRQSDIVIKYGRPIGSAIKDIKVGEHVHVHNIRSNRWGKWKNQ", "Value observed": "not failed"}
{"Polymer sequence": "MATPKLEIGVIGLGKFGLQVSRTLVELGHSVVGIDSTEGRIRQAQDILSQVYQGNAADPAVLQQLRFQDLDCVIVSVGNSMETSLLVTLNLQEIGVRKIWVKAVSTEHKKVLTRLGVDHVILPEHDVATHLAHRLVNPGMLDLLPLGGGGQILLQELTVDKWAGRTLLDLRLANEHGVMVVAVKPAAFREYRFVPAAHEVLQQGDKLVVIGRHEDVLRLEP", "Value observed": "failed"}
{"Polymer sequence": "MYGRKGYQLIKDFATGEKGQLKPFNSKLFDETIEECDQNHHLIQSLIRKMQQEGLDVQNNRNADHYGALIHHLALIRNKRCLMAYVYNRAEIVRDLAWRVGLELLDLPSEIQEKLTTLEKEYFKNHSVALKSYMGKVGIELNVDMVPPKDPYIKVRILDDIDEGIVLSDKTTNFARHSMHFLKRTDAEPYIARGQMEELTG", "Value observed": "failed"}
{"Polymer sequence": "MAVSHSVKERTISENSLIILLQGLQGRVTTVDLRDESVAHGRIDNVDAFMNIRLAKVTYTDRWGHQVKLDDLFVTGPNVRYVHIPDDVNITSTIEQQLQIIHRVRNFGGKGQGRWEFPPKNCK", "Value observed": "failed"}

// switching to the query sequence
What does the data say about its protein production? Entry: MSKVIFALVLVVVLVACINATYVEFEEAYAPVDCKGQCTTPCEPLTACKEKCAESCETSADKKTCRRNCKKADCEPQDKVCDACRMKCHKACRAANCASECPKHEHKSDTCRACMKTNCK not failed

----------
- Experimental protocol: label from the status in PepcDB records

{"Polymer sequence": "MGLNSKAEVAKSRKNAAEAEQKDRQTREKEEQYWREAEGPKSKAVKKREEEAEKKAETAAKKLEAKRLAEQEEKELEKALKKPDKKANRVTVPVPKVTEAELIRRREEDQVALAKKAEDSKKKQTRMAGEDEYEKMVLVTNTNRDDSLIEAHTVDEALARITVSDNLPVDRHPEKRLKASFKAYEEVELPRLKSEKPGLTHTQYKDLIWKMWKKSPDNPLNQAAAAAANE", "protein production": "failed"}
{"Polymer sequence": "MVSRLEHPAGGYKKVFESCEELAEPIPAHVSGKIPAWLSGSLLRMGPGLFEIGDEPFNHLFDGQALIHKFDLKDGRVTYHRKFIRTDAYVRAMTEKRVVITELGTAAYPDPCKNIFSRFFTYFQGTEVTDNCSVNIYPIGEDFYACTETNFITKVNPDTLETIKKVDLCNYLSVNGLTAHPHIEADGTVYNIGNCFGKNMSLAYNIVKIPPLQEEKSDPLAMSKVLVQFPSSERFKPSYVHSFGMTENHFVFVETPVKINLLKFLTSWSIRGSNYMDCFESNDRMGTWFHLAAKNPGKYINNPSQ", "protein production": "failed"}

----------
- Experimental protocol: label from the status in PepcDB records
Observation type: protein production

{"Polymer sequence": "LSRVGSAEWNLLTDEATWSGELYQILGRDPAAPPLTLDELPSFVHDEDRPRLTAMVTDCLIDAKPIDGEFRIVRPDGGVRTVHMMGEPVLDAHGSTASMWAVLRDVSE", "Value observed": "not failed"}
{"Polymer sequence": "AIVKRFEPLLLVPIGFGGILSNLPDAGLAMSAIENAVYAAKPEVMTAFSEVLQLSSYMPADIKQALSSATPLQMTTLHLLAEQYQYSDGM", "Value observed": "failed"}
{"Polymer sequence": "MTDEDSEANALADPDNPPLSAEQLASAPRMPRIKIIRRALKLTQEEFSARYHIPLGTLRDWEQGRSEPDQPARAYLKIIAVDPEGTAAALRKGAT", "Value observed": "not failed"}
{"Polymer sequence": "MTNHEQVLTDYLAAFIEELVQAGVKEAIISPGSRSTPLALMMAEHPTLKIYVDVDERSAGFFALGLAKASKRPVVLLCTSGTAAANYFPAVVEANLSQIPLIVLTADRPHELRNVGAPQAMDQLHLYGSHVKDFTDMALPENSDEMLRYAKWHSSRAVDIAMKTPRGPVHLNFPLREPLVPILEPSPFTATGKKHHHVH", "Value observed": "failed"}

What does the data say about its protein production? Entry: MSLDNLDVICIGAAIVDIPLQPVSKNIFDVDSYPLERIAMTTGGDAINEATIISRLGHRTALMSRIGKDAAGQFILDHCRKENIDIQSLKQDVSIDTSINVGLVTEDGERTFVTNRNGSLWKLNIDDVDFARFSQAKLLSLASIFNSPLLDGKALTEIFTQAKARQMIICADMIKPRLNETLDDICEALSYVDYLFPNFAEAKLLTGKETLDEIADCFLACGVKTVVIKTGKDGCFIKRGDMTMKVPAVAGITAIDTIGAGDNFASGFIAALLEGKNLRECARFANATAAISVLSVGATTGVKNRKLVEQLLEEYEGEGHHHHHH not failed

----------
- Experimental protocol: label from the status in PepcDB records
Observation type: protein production

{"Polymer sequence": "MSWTVVYSAQAKQDLRNIFEYIAHSLCSPDAAKSQTRRIMAEIHSLDEMPLRYRIYDDEPWRSQGLRFFPVDYYLVFYLPVASANTVKIVRIMYGGRDVKKHLEEELLEHHHHHH", "Value observed": "failed"}
{"Polymer sequence": "MCENEEYRERFPDKHFDLETVLQAKVRPICVVPERTFIGFFHREKSKEEEEKEDVSLDFLKGVMSFDSIWEEIMKQEPEESASEHVIYIVSWNDHYFVLLVNHDAYYIIDTLGERVYEGCNQAYVLKFDQDAEIKRLPSVIKDNKADMGSQKQGGKNKYEQPERSKESEEQGEEVVVCRGKESCREYIKSFLAAIPIQQVKADMKEGLVSSFHHRLQIELYYTKHLHHRQPNMFESSTTKVTVSEATVSMTVAWLLASQFSNSGGFGCEMAELLGIKV", "Value observed": "failed"}
